Structures can show the parent of a compound that is named as a salt.
property_name: melting point (°C)
Please state the figure in °C; there is no need to write the unit.

q: Dear colleague, I am looking for the recorded melting point of the following molecule: "CC(C)(C)c1nc2cc(S(=O)(=O)c3ccnc(F)c3)ccc2n1C[C@H]1CC[C@H](O)CC1"
a: 163.6

q: Dear colleague, I am looking for the recorded melting point of the following molecule: "CCOc1cc(S(=O)(=O)c2ccc3c(c2)nc(C(C)(C)C)n3CCCC(F)(F)F)ccn1"
a: 137.7

q: Dear colleague, I am looking for the recorded melting point of the following molecule: "Cn1cc(S(=O)(=O)c2ccc3c(c2)nc(C(C)(C)C)n3CC2CCN(C=O)CC2)cn1"
a: 213.9

q: Dear colleague, I am looking for the recorded melting point of the following molecule: "CC(=O)NCCOc1cc(S(=O)(=O)c2ccc3c(c2)nc(C(C)(C)C)n3CC2CCOCC2)ccn1"
a: 182.3

q: Dear colleague, I am looking for the recorded melting point of the following molecule: "CC(=O)c1ccc(S(=O)(=O)c2ccc3c(c2)nc(C(C)(C)C)n3CC2CCOCC2)s1"
a: 151

q: Dear colleague, I am looking for the recorded melting point of the following molecule: "Cc1cc(S(=O)(=O)c2ccc3c(c2)nc(C(C)(C)C)n3CC2CCOCC2)cc[n+]1[O-]"
a: 215.3

q: Dear colleague, I am looking for the recorded melting point of the following molecule: "CC(C)(C)c1nc2cc(S(=O)(=O)c3ccnc(OCC(F)(F)F)c3)ccc2n1CC1CCOCC1"
a: 166.7

q: Dear colleague, I am looking for the recorded melting point of the following molecule: "CC(C)(C)c1nc2cc(S(=O)(=O)c3sc(S(C)(=O)=O)cc3Br)ccc2n1CC1CCOCC1"
a: 200

q: Dear colleague, I am looking for the recorded melting point of the following molecule: "CC(C)(C)c1nc2cc(S(=O)(=O)c3ncc(C#N)s3)ccc2n1CCCC(F)(F)F"
a: 122

q: Dear colleague, I am looking for the recorded melting point of the following molecule: "CC(=O)N1CCC(Cn2c(C(C)(C)C)nc3cc(S(=O)(=O)c4ccnc(F)c4)ccc32)CC1"
a: 193.9

q: Dear colleague, I am looking for the recorded melting point of the following molecule: "CC(C)(C)c1nc2cc(S(=O)(=O)c3ccc(C(C)(C)O)s3)ccc2n1CC1CCOCC1"
a: 258

q: Dear colleague, I am looking for the recorded melting point of the following molecule: CC(C)(C)c1nc2cc(S(=O)(=O)c3ccnc(C#N)c3)ccc2n1CC1CCOCC1 (as salt: methanesulfonate) [Co. No. 93]
a: 215.7

q: Dear colleague, I am looking for the recorded melting point of the following molecule: "COC(=O)c1cc(S(=O)(=O)c2ccc3c(c2)nc(C(C)(C)C)n3CC2CCOCC2)c[nH]1"
a: 231

q: Dear colleague, I am looking for the recorded melting point of the following molecule: "CC(C)(C)c1nc2cc(S(=O)(=O)c3ccc(C4(C)OCCO4)cn3)ccc2n1CC1CCOCC1"
a: 191

q: Dear colleague, I am looking for the recorded melting point of the following molecule: "CC(C)(C)c1nc2cc(S(=O)(=O)c3cc[n+]([O-])cc3Br)ccc2n1CC1CCOCC1"
a: 205.3

q: Dear colleague, I am looking for the recorded melting point of the following molecule: "COCCCOc1cc(S(=O)(=O)c2ccc3c(c2)nc(C(C)(C)C)n3CC2CCOCC2)ccn1"
a: 106.5

q: Dear colleague, I am looking for the recorded melting point of the following molecule: "CN(C)CCCOc1cc(S(=O)(=O)c2ccc3c(c2)nc(C(C)(C)C)n3CC2CCOCC2)ccn1"
a: 119.4

q: Dear colleague, I am looking for the recorded melting point of the following molecule: "Cn1ccc(S(=O)(=O)c2ccc3c(c2)nc(C(C)(C)C)n3CC2CCOCC2)cc1=O"
a: 216

q: Dear colleague, I am looking for the recorded melting point of the following molecule: "CC(C)(C)c1nc2cc(S(=O)(=O)c3ccc(S(C)(=O)=O)o3)ccc2n1CC1CCOCC1"
a: 165.2

q: Dear colleague, I am looking for the recorded melting point of the following molecule: "CC(C)(C)c1nc2cc(S(=O)(=O)c3cc[n+]([O-])cc3C(F)(F)F)ccc2n1CC1CCOCC1"
a: 205.8

q: Dear colleague, I am looking for the recorded melting point of the following molecule: "CC(C)(C)c1nc2cc(S(=O)(=O)c3ccc(S(=O)(=O)N4CCOCC4)s3)ccc2n1CC1CCOCC1"
a: 198

q: Dear colleague, I am looking for the recorded melting point of the following molecule: "CC(C)(C)c1nc2cc(S(=O)(=O)c3ccnc(OCCCO)c3)ccc2n1CC1CCOCC1"
a: 161.5

q: Dear colleague, I am looking for the recorded melting point of the following molecule: "CC(C)(C)c1nc2cc(S(=O)(=O)c3ccnc(Cl)c3)ccc2n1CC1CCOCC1"
a: 201

q: Dear colleague, I am looking for the recorded melting point of the following molecule: "CC(C)(C)c1nc2cc(S(=O)(=O)c3ccnc(F)c3)ccc2n1CC1CCS(=O)(=O)CC1"
a: 220.8

q: Dear colleague, I am looking for the recorded melting point of the following molecule: CC1(C)CC(Cn2c(C(C)(C)C)nc3cc(S(=O)(=O)c4ccnc(F)c4)ccc32)CCO1 (stereo not shown)
a: 159.4

q: Dear colleague, I am looking for the recorded melting point of the following molecule: "CC(C)(C)c1nc2cc(S(=O)(=O)c3ccc(S(C)(=O)=O)nc3)ccc2n1CC1CCCCC1"
a: 200

q: Dear colleague, I am looking for the recorded melting point of the following molecule: "CCNS(=O)(=O)c1ccc(S(=O)(=O)c2ccc3c(c2)nc(C(C)(C)C)n3CC2CCOCC2)s1"
a: 158

====

# measurement_target: human CB2 (hCB2) receptor (Homo sapiens, UniProt P34972)
# Construct: expressed in transfected cells; host or cells: CHO-K1
# Sequence (P34972 whole entry): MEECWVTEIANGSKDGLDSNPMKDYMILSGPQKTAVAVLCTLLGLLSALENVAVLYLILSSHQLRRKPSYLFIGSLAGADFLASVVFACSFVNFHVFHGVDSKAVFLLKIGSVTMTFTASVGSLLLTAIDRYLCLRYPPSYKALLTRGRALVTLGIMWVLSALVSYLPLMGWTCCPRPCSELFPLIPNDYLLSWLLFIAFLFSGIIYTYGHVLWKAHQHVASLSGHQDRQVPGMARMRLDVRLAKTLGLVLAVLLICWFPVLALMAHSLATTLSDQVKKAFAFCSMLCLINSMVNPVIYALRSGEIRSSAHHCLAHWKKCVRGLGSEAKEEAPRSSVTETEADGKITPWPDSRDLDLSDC
# assay_name: Inhibition of forskolin-activated cAMP production upon activation of hCB2 (HTRF), CHO-K1 cells
# Format: cell-based
# run_parameters: Table C-1; selectivity hCB2 over hCB1
Task for the reader: assign each of the following molecules its reported ratio CB2 agonism over CB1 agonism.

q: Item CC(C)(C)c1nc2cc(S(=O)(=O)c3ccnc(F)c3)ccc2n1CC1CCCCO1 (centres unmarked) with human CB2 (hCB2) receptor (Homo sapiens, UniProt P34972) - ratio CB2 agonism over CB1 agonism?
a: 302

q: Item "CC(C)(C)c1nc2cc(S(=O)(=O)c3cc(C(F)(F)F)ccn3)ccc2n1CC1CCOCC1" with human CB2 (hCB2) receptor (Homo sapiens, UniProt P34972) - ratio CB2 agonism over CB1 agonism?
a: 295

q: Item "CC(C)(C)c1nc2cc(S(=O)(=O)c3ccnc(OCCCO)c3)ccc2n1CC1CCOCC1" with human CB2 (hCB2) receptor (Homo sapiens, UniProt P34972) - ratio CB2 agonism over CB1 agonism?
a: 3090

q: Item "CC(C)(C)c1nc2cc(S(=O)(=O)c3cncc(C#N)c3)ccc2n1CC1CCCCC1" with human CB2 (hCB2) receptor (Homo sapiens, UniProt P34972) - ratio CB2 agonism over CB1 agonism?
a: 108

q: Item "COc1cc(S(=O)(=O)c2ccc3c(c2)nc(C(C)(C)C)n3CC2CCOCC2)c(F)cn1" with human CB2 (hCB2) receptor (Homo sapiens, UniProt P34972) - ratio CB2 agonism over CB1 agonism?
a: 1525

q: Item COC(C)c1ccc(S(=O)(=O)c2ccc3c(c2)nc(C(C)(C)C)n3CC2CCOCC2)nc1 (centres unmarked) with human CB2 (hCB2) receptor (Homo sapiens, UniProt P34972) - ratio CB2 agonism over CB1 agonism?
a: >2138

q: Item "CC(C)(C)c1nc2cc(S(=O)(=O)c3ccn(C(F)F)c(=O)c3)ccc2n1CC1CCOCC1" with human CB2 (hCB2) receptor (Homo sapiens, UniProt P34972) - ratio CB2 agonism over CB1 agonism?
a: 209

q: Item "CC(C)(C)c1nc2cc(S(=O)(=O)c3ccnc(CCCCN)c3)ccc2n1CC1CCOCC1" with human CB2 (hCB2) receptor (Homo sapiens, UniProt P34972) - ratio CB2 agonism over CB1 agonism?
a: >759

q: Item "CCC(C)(C)c1nc2cc(S(=O)(=O)c3ccc(OC)nn3)ccc2n1CC1CCC1" with human CB2 (hCB2) receptor (Homo sapiens, UniProt P34972) - ratio CB2 agonism over CB1 agonism?
a: 676

q: Item "CC(C)(C)c1nc2cc(S(=O)(=O)c3ccc(C4(C)OCCO4)cn3)ccc2n1CC1CCOCC1" with human CB2 (hCB2) receptor (Homo sapiens, UniProt P34972) - ratio CB2 agonism over CB1 agonism?
a: >3311

q: Item "CC(C)(C)OC(=O)NCCCOc1cc(S(=O)(=O)c2ccc3c(c2)nc(C(C)(C)C)n3CC2CCOCC2)ccn1" with human CB2 (hCB2) receptor (Homo sapiens, UniProt P34972) - ratio CB2 agonism over CB1 agonism?
a: >4315
